Cited source for all entries: patent US20240174690A1

Readings of fraction unbound for the listed compounds
Assay: Plasma protein binding assay (PPB), equilibrium dialysis, 10% FCS in PBS
Format: in vitro ADME
Conditions: bovine, read-out: PPB 10% FCS (% fu)

Worked cases, answers included:
C[C@H](Oc1cc(N2CCCC2=O)nc(-c2noc3c2CCC[C@@]32CCCc3sc(N)c(C#N)c32)n1)[C@@H]1CCCN1C    0.22
C[C@H](Oc1cc(-n2ccc(C(=O)N[C@@H]3CCOC3)n2)nc(-c2onc3c2CCC[C@@]32CCCc3sc(N)c(C#N)c32)n1)[C@@H]1CCCN1C    0.32
C[C@H](Oc1cc(N2CCN(C)C3(CC3)C2)nc(-c2onc3c2CCC[C@@]32CCCc3sc(N)c(C#N)c32)n1)[C@@H]1C[C@@H](F)CN1C    0.07
C[C@H](Oc1cc(-n2ccnc2Cl)nc(-c2noc3c2CCC[C@@]32CCCc3sc(N)c(C#N)c32)n1)[C@@H]1CCCN1C    0.05
C[C@H](Oc1cc(N2CCNC3(COC3)C2)nc(-c2noc3c2CCC[C@@]32CCCc3sc(N)c(C#N)c32)n1)[C@@H]1CCCN1C    0.63

Here is the next item to consider.
QUERY: Quick one: fraction unbound for C[C@H](Oc1cc(-n2ccc(Br)n2)nc(-c2noc3c2CCC[C@@]32CCCc3sc(N)c(C#N)c32)n1)[C@@H]1CCCN1C ?
RESULT: 0.01

* * *

Target: UniProt:P08684
Sequence (P08684 whole entry): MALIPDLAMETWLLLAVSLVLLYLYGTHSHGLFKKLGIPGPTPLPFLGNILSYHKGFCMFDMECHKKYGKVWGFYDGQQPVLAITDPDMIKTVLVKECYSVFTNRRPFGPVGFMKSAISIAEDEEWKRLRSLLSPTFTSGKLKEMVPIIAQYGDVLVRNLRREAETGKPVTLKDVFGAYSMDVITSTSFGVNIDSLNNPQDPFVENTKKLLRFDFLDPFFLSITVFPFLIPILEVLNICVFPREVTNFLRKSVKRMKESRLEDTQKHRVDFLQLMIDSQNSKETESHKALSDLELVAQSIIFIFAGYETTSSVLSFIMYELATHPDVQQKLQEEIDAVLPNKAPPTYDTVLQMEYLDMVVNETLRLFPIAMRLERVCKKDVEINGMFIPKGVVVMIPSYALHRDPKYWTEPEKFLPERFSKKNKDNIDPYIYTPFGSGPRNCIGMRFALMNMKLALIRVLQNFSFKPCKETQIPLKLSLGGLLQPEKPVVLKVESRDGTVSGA
Experiment: Mechanism based inhibition of CYP3A4 assay (MBI 3A4)
Type: in vitro ADME
Conditions: hydroxy-midazolam formation after 30 min vs 0 min preincubation, 25 uM, human liver microsomes
Recorded MBI 3A4 determines the label; the label ranges are Low = under 60%, Medium = from 60% up to 70%, High = 70% and over

Below, 2 compounds whose answers are already recorded.
COCc1cn(-c2cc(O[C@@H](C)[C@@H]3CCCN3C)nc(-c3noc4c3CCC[C@@]43CCCc4sc(N)c(C#N)c43)n2)nn1 [II-121]    Low
C[C@H](O)Cn1ncc(-c2cc(O[C@@H](C)[C@@H]3CCCN3C)nc(-c3noc4c3CCC[C@@]43CCCc4sc(N)c(C#N)c43)n2)n1 [II-134]    High

QUERY: Category lookup for the compound C[C@H](O)Cn1ccc(-c2cc(O[C@@H](C)[C@@H]3CCCN3C)nc(-c3onc4c3CCC[C@@]43CCCc4sc(N)c(C#N)c43)n2)n1 [I-31]
RESULT: Medium

QUERY: # bin lookup: classify C[C@H](Oc1cc(-c2ccn(C[C@@H](C)O)n2)nc(-c2onc3c2CCC[C@@]32CCCc3sc(N)c(C#N)c32)n1)[C@@H]1CCCN1C [I-30] by its MBI 3A4
RESULT: High

QUERY: Tag the class for C[C@H](Oc1cc(-c2ccn3ncnc3c2)nc(-c2noc3c2CCC[C@@]32CCCc3sc(N)c(C#N)c32)n1)[C@@H]1CCCN1C [II-104]
RESULT: High

* * *

Test: Solubility measurement (DMSO solution method), McIlvaine buffer pH 4.5 or 6.8
Assay type: physicochemical
Conditions: aqueous buffer, kinetic from dmso stock; McIlvaine buffer pH 4.5; DMSO stock diluted to 250 μM; 24 h shaking at ambient temperature; read-out: solubility pH 4.5
Readout label: solubility at 24 h

Solved entries:
C[C@H](Oc1cc(Cl)nc(-c2onc3c2CCC[C@@]32CCCc3sc(N)c(C#N)c32)n1)[C@@H]1CCCN1C    > 125 µg/mL
C[C@H](Oc1cc(-c2ccn(C3COC3)n2)nc(-c2noc3c2CCC[C@@]32CCCc3sc(N)c(C#N)c32)n1)[C@@H]1C[C@H](F)CN1C    < 1 µg/mL

QUERY: Could you tell me which solubility at 24 h is on file for C[C@H](Oc1cc(N2CCNC[C@@]23CCOC3)nc(-c2noc3c2CCC[C@@]32CCCc3sc(N)c(C#N)c32)n1)[C@@H]1CCCN1C ?
RESULT: > 138 µg/mL

QUERY: Entry C[C@H](Oc1cc(-n2ccc(C(=O)N(C)C3COC3)n2)nc(-c2onc3c2CCC[C@@]32CCCc3sc(N)c(C#N)c32)n1)[C@@H]1CCCN1C : reported solubility at 24 h = ?
RESULT: > 158 µg/mL

QUERY: Please look up its solubility at 24 h: CO[C@@H]1C[C@@H]([C@H](C)Oc2cc(-n3ccnc3)nc(-c3noc4c3CCC[C@@]43CCCc4sc(N)c(C#N)c43)n2)N(C)C1
RESULT: > 124 µg/mL

QUERY: Can you look up the measured solubility at 24 h of C[C@H](Oc1cc(-c2ccn(C)n2)nc(-c2noc3c2CCC[C@@]32CCCc3sc(N)c(C#N)c32)n1)[C@@H]1C[C@H](F)CN1C for me?
RESULT: 105 µg/mL

* * *

Target: KRAS (G12C)::SOS1 (Homo sapiens (Human), UniProt P01116, C118S/C51S/C80L/G12C)
Sequence (P01116 other isoform, or with tags, fused parts or gaps G12C/C51S/C80L/C118S): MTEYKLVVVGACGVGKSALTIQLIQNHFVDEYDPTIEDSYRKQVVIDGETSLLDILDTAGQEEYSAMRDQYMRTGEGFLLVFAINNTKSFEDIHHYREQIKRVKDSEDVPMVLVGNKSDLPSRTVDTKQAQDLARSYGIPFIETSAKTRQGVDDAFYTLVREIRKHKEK
Test: KRAS::SOS1 AlphaScreen binding assay, KRAS G12C
Readout label: IC50 (nM)
Note: unit nM is implicit; provide only the numeric part.

Observe how each entry below is paired with its result.
C[C@H](Oc1cc(-c2cc[nH]n2)nc(-c2noc3c2CCC[C@@]32CCCc3sc(N)c(C#N)c32)n1)[C@@H]1CCCN1C [II-71]    2
C[C@H](Oc1cc(-c2ccn(C)n2)nc(-c2noc3c2CCC[C@@]32CCCc3sc(N)c(C#N)c32)n1)[C@@H]1CCCN1C [II-96]    2

Now for the compound whose IC50 we want.
QUERY: I have this compound here, C[C@H](Oc1cc(-c2ccn(C[C@H]3CCOC3)n2)nc(-c2noc3c2CCC[C@@]32CCCc3sc(N)c(C#N)c32)n1)[C@@H]1CCCN1C [II-129] , and I need its recorded IC50.
RESULT: 2

* * *

Items are presented alongside their recorded HLM QH.
Assay: Metabolic (microsomal) stability assay, human liver microsomes (HLM)
Assay type: in vitro ADME
Details: predicted clearance as percent of liver blood flow, 1 μM

Study these solved cases before continuing.
C[C@H](Oc1cc(N2C[C@H](C)NC3(CC3)C2)nc(-c2onc3c2CCC[C@@]32CCCc3sc(N)c(C#N)c32)n1)[C@@H]1CCCN1C    <24%
C[C@H](Oc1cc(N2C[C@H](C)N(C)[C@@H](C)C2)nc(-c2noc3c2CCC[C@@]32CCCc3sc(N)c(C#N)c32)n1)[C@@H]1CCCN1C    <24%
C[C@H](Oc1cc(N2CCN(C)C3(CC3)C2)nc(-c2onc3c2CCC[C@@]32CCCc3sc(N)c(C#N)c32)n1)[C@@H]1C[C@@H](F)CN1C    39%
CO[C@@H]1C[C@@H]([C@H](C)Oc2cc(N3CCN(C)C4(CC4)C3)nc(-c3noc4c3CCC[C@@]43CCCc4sc(N)c(C#N)c43)n2)N(C)C1    58%
C[C@H](Oc1cc(N2CC(N(C)C)C2)nc(-c2noc3c2CCC[C@@]32CCCc3sc(N)c(C#N)c32)n1)[C@@H]1CCCN1C    <24%

Lab note: next compound to report on.
QUERY: What measured HLM QH goes with C[C@H](Oc1cc(-c2cncnc2)nc(-c2noc3c2CCC[C@@]32CCCc3sc(N)c(C#N)c32)n1)[C@@H]1CCCN1C ?
RESULT: <24%

* * *

Experiment: Solubility measurement (DMSO solution method), McIlvaine buffer pH 4.5 or 6.8
Type: physicochemical
Conditions: aqueous buffer, kinetic from dmso stock; McIlvaine buffer pH 4.5; DMSO stock diluted to 250 μM; 24 h shaking at ambient temperature; read-out: solubility pH 4.5
Experimental: The DMSO solution is diluted with an aqueous medium (Mcllvaine buffer with pH=4.5 or 6.8) to a final concentration of 250 μM. After 24 h of shaking at ambient temperature a potentially formed precipitate is removed by filtration. The concentration of the test compound in the filtrate is determined by LC-UV methods by calibrating the signal to the signal of a reference solution with complete dissolution of the test compound in acetonitrile/water (1:1) with known concentration.
Measured solubility at 24 h of individual entries
The response must be a number in µg/mL with no trailing unit.

QUERY: For the compound shown here, C[C@H](Oc1cc(-n2ccnc2)nc(-c2noc3c2CCC[C@@]32CCCc3sc(N)c(C#N)c32)n1)[C@@H]1C[C@@H](F)CN1C [II-120] , give the reported solubility at 24 h.
RESULT: 106

* * *

Assay: Plasma protein binding assay (PPB), equilibrium dialysis, 10% FCS in PBS
Assay type: in vitro ADME
Conditions: bovine, read-out: PPB 10% FCS (% fu)
Values of fraction unbound strictly less than 0.2 map to 1.0, and values of at least 0.2 map to 0.0.

Some entries whose results are on file:
C[C@H](Oc1cc(N2CCNC3(CC3)C2)nc(-c2onc3c2CCC[C@@]32CCCc3sc(N)c(C#N)c32)n1)[C@@H]1C[C@@H](F)CN1C    1.0
C[C@H](Oc1cc(N2CCN(C)C3(CCC3)C2)nc(-c2onc3c2CCC[C@@]32CCCc3sc(N)c(C#N)c32)n1)[C@@H]1CCCN1C    0.0

QUERY: Quick check: does C[C@H](Oc1cc(N2CCN3CCC3C2)nc(-c2onc3c2CCC[C@@]32CCCc3sc(N)c(C#N)c32)n1)[C@@H]1CCCN1C (stereo partly shown) have fraction unbound under 0.2?
RESULT: 0.0

QUERY: Take the compound C[C@@H]1CN(c2cc(O[C@@H](C)[C@@H]3C[C@@H](F)CN3C)nc(-c3noc4c3CCC[C@@]43CCCc4sc(N)c(C#N)c43)n2)CC2(CC2)N1 and say whether its fraction unbound is less than 0.2.
RESULT: 1.0

QUERY: Lab note: fraction unbound threshold 0.2. Does this compound come in strictly under it? Cc1nccn1-c1cc(O[C@@H](C)[C@@H]2CCCN2C)nc(-c2noc3c2CCC[C@@]32CCCc3sc(N)c(C#N)c32)n1
RESULT: 1.0

QUERY: Is fraction unbound strictly under 0.2 for the entry C[C@H](Oc1cc(N2CCC(C#N)C2)nc(-c2noc3c2CCC[C@@]32CCCc3sc(N)c(C#N)c32)n1)[C@@H]1CCCN1C (stereo partly shown) ?
RESULT: 1.0

QUERY: Lab note: fraction unbound threshold 0.2. Does this compound come in strictly under it? CO[C@H]1CCN(C)[C@@H]1[C@H](C)Oc1cc(N2CCNC3(CC3)C2)nc(-c2onc3c2CCC[C@@]32CCCc3sc(N)c(C#N)c32)n1
RESULT: 1.0

QUERY: Please check: fraction unbound for C[C@H](Oc1cc(N2Cc3cnn(C)c3C2)nc(-c2noc3c2CCC[C@@]32CCCc3sc(N)c(C#N)c32)n1)[C@@H]1CCCN1C , strictly under 0.2 or not?
RESULT: 1.0

QUERY: Criterion: fraction unbound strictly below 0.2. Is it met by C[C@H](Oc1cc(-n2ccncc2=O)nc(-c2noc3c2CCC[C@@]32CCCc3sc(N)c(C#N)c32)n1)[C@@H]1CCCN1C ?
RESULT: 0.0

QUERY: API: query returns whether the compound falls strictly under 0.2 in fraction unbound. Query: C[C@H](Oc1cc(N2CCN(C)C3(COC3)C2)nc(-c2onc3c2CCC[C@@]32CCCc3sc(N)c(C#N)c32)n1)[C@@H]1C[C@@H](F)CN1C
RESULT: 0.0
